Sourced from patent US8822517B2

# assay-system: serotoninergic 5-HT7 receptor (Homo sapiens)
# Sequence (P34969 whole entry): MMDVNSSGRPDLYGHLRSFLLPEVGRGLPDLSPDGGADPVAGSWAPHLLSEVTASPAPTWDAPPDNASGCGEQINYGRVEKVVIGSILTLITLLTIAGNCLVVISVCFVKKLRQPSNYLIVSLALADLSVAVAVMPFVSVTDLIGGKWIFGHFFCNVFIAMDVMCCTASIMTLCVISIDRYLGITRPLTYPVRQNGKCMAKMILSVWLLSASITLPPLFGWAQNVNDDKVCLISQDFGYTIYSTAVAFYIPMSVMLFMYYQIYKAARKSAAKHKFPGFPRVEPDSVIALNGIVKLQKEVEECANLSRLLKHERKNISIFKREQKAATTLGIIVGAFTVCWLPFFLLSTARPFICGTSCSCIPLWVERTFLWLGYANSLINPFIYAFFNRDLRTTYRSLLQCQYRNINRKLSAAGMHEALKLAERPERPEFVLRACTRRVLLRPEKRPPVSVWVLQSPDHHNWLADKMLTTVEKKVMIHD
# experiment-notes: Binding assay 5-HT7 (h), [3H]LSD, CHO cells
# Parameters: expressed in transfected cells; host or cells: CHO cells
# settings: read-out: 5-HT7
Reported inhibition at 1 µM values follow for various compounds
property-measured: inhibition at 1 µM (%)

- compound: "Cc1[nH]c2ccc(Cl)cc2c1C1=CCN(CCCNS(=O)(=O)c2cccc(Cl)c2)CC1 [Compound 138]"
  property-measured: "inhibition at 1 µM"
  unit-symbol: "%"
  val: 52
- compound: "O=S(=O)(NCCCN1CCC(c2noc3cc(F)ccc23)CC1)c1ccc2c(c1)OCCO2 [Compound 355]"
  property-measured: "inhibition at 1 µM"
  unit-symbol: "%"
  val: 84
- compound: "O=c1[nH]c2cccc(N3CCN(CCCNS(=O)(=O)c4cccc(Cl)c4)CC3)c2[nH]1 [Compound 174]"
  property-measured: "inhibition at 1 µM"
  unit-symbol: "%"
  val: 92
- compound: "O=S(=O)(NCCCN1CCN(c2nsc3ccccc23)CC1)c1cccc(Cl)c1 [Compound 70]"
  property-measured: "inhibition at 1 µM"
  unit-symbol: "%"
  val: 100
- compound: "CC(C)(C)c1ccc(S(=O)(=O)NCCCCN2CCN(c3nsc4ccccc34)CC2)cc1 [Compound 233]"
  property-measured: "inhibition at 1 µM"
  unit-symbol: "%"
  val: 93
- compound: "O=S(=O)(NCCCN1CCC(c2noc3cc(F)ccc23)CC1)c1ccc2ccccc2c1 [Compound 21]"
  property-measured: "inhibition at 1 µM"
  unit-symbol: "%"
  val: 99
- compound: "Cc1[nH]c2ccc(Cl)cc2c1C1=CCN(CCCCNS(=O)(=O)c2ccc(Cl)cc2)CC1 [Compound 58]"
  property-measured: "inhibition at 1 µM"
  unit-symbol: "%"
  val: 46
- compound: "O=S(=O)(NCCCCN1CCN(c2nsc3ccccc23)CC1)c1ccc(OC(F)(F)F)cc1 [Compound 236]"
  property-measured: "inhibition at 1 µM"
  unit-symbol: "%"
  val: 91

---

# assay-system: serotoninergic 5-HT2A receptor (Homo sapiens)
# Sequence (P28223 whole entry): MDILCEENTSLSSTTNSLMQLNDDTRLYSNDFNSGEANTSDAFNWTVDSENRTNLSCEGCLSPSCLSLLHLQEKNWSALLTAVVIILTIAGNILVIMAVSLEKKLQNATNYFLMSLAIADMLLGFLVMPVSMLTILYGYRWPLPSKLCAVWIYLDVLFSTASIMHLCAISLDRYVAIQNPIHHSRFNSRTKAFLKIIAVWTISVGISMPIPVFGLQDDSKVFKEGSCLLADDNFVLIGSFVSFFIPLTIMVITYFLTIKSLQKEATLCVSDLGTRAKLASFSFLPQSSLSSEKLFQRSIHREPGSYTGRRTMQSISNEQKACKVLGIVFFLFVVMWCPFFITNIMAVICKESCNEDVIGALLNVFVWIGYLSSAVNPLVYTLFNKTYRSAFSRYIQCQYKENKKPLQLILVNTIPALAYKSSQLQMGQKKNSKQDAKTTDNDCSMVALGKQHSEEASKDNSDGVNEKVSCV
# experiment-notes: Binding assay 5-HT2A (h), [3H]ketanserin, HEK-293 cells
# Set-up: expressed in transfected cells; host or cells: HEK-293 cells
# settings: read-out: 5-HT2A
Binary classification by inhibition at 1 µM, with 90% as an inclusive lower bound for label 1; all other cases are label 0.

- structure-notation: "Cc1[nH]c2ccc(Cl)cc2c1C1=CCN(CCCNS(=O)(=O)c2cccc(O)c2)CC1"
  category: "label 0"
- structure-notation: "O=S(=O)(NCCCN1CCN(c2cccc3c2OCCO3)CC1)c1ccc2cc(Cl)ccc2c1"
  category: "label 0"
- structure-notation: "O=S(=O)(NCCN1CCN(c2nsc3ccccc23)CC1)c1cccc2ccccc12"
  category: "label 1"
- structure-notation: "Cc1c(S(=O)(=O)NCCCN2CCC(c3noc4cc(F)ccc34)CC2)sc2ccc(Cl)cc12"
  category: "label 1"
- structure-notation: "Cc1[nH]c2ccc(Cl)cc2c1C1=CCN(CCCNS(=O)(=O)c2ccc(Cl)cc2)CC1"
  category: "label 0"
- structure-notation: "O=S(=O)(NCCCCN1CCN(c2cccc3[nH]ccc23)CC1)c1cc2ccccc2s1"
  category: "label 1"
- structure-notation: "Cc1cccc(S(=O)(=O)NCCCCN2CCN(c3cccc4c3OCCO4)CC2)c1"
  category: "label 0"
